target.system: Protein-tyrosine kinase 2-beta (Homo sapiens) (UniProt Q14289)
Sequence (Q14289 whole entry, looked up): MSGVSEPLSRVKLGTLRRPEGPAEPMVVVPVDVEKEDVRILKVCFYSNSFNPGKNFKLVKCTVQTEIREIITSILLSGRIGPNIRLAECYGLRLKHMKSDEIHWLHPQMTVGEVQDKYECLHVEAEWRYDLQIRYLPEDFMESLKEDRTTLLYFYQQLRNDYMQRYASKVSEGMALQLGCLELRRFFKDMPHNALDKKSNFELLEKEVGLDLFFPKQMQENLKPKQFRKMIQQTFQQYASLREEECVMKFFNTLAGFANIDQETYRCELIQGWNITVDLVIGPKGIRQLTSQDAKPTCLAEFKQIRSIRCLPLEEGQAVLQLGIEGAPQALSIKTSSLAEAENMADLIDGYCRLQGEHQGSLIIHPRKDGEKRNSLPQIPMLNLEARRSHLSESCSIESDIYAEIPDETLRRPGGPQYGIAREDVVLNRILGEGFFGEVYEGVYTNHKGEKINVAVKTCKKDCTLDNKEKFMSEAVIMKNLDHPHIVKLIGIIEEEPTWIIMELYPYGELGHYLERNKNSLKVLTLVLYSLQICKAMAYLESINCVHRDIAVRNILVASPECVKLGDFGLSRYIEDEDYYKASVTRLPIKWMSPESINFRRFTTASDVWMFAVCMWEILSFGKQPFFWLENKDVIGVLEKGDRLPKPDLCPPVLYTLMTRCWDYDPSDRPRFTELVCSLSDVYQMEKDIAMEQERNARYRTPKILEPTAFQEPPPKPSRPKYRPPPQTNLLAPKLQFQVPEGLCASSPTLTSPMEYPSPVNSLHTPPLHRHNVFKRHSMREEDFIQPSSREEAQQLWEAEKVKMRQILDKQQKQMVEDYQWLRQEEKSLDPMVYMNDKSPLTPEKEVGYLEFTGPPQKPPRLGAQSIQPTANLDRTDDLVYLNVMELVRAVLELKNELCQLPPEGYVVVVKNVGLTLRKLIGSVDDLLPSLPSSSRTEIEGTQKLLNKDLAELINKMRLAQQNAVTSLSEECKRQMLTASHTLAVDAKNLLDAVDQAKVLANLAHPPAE
protocol.text: Inhibition of PTK2B at 10 uM after 60 mins by TR-FRET assay
measured.attribute: inhibition (%)

{"columns": ["compound", "measured.attribute", "data.value"],
 "data": [
  ["O=c1n(Cc2ccccn2)nc(-c2ccnc(NC3CCOCC3)c2)n1-c1ccc2ccccc2c1", "inhibition", -7]
]}

[P] O=c1n(Cc2ccncc2)nc(-c2ccnc(NC3CCCCC3)c2)n1-c1ccc2ccccc2c1
[Q] O=c1[nH]nc(-c2ccnc(NC3CCOCC3)c2)n1-c1ccc2ccccc2c1
[R] O=c1n(C2CCOCC2)nc(-c2ccnc(NC3CCCCC3)c2)n1-c1ccc2ccccc2c1
[S] O=c1[nH]nc(-c2ccnc(NC3CCCCC3)c2)n1-c1ccc2ccccc2c1
[T] O=c1[nH]nc(-c2ccnc(NC3CCCOC3)c2)n1-c1ccc2ccccc2c1 (stereo unspecified)
Arrange the 5 compounds by rising inhibition, starting with the smallest. Output spec: labels arranged per the requested ranking.
S, R, Q, P, T

---

protocol.text: Apparent permeability of the compound from apical to basolateral direction in MDCK2 cells at 5 uM after 120 mins
Type: ADME, cell-based, Canis lupus familiaris, MDCK-II
measurement.setup: dog, MDCK
measured.attribute: Papp A→B at 2 h, 5 µM (×10⁻⁶ cm/s)

Here's what some known entries look like.
{"columns": ["molecule", "measured.attribute", "data.value"],
 "data": [
  ["O=c1n(C2CCOC2)nc(-c2ccnc(NC3CCOCC3)c2)n1-c1ccc2ccccc2c1 (configuration not stated)", "Papp A→B at 2 h, 5 µM", 21.8],
  ["O=c1n(-c2ccccn2)nc(-c2ccnc(NC3CCOCC3)c2)n1-c1ccc2ccccc2c1", "Papp A→B at 2 h, 5 µM", 5.1],
  ["O=c1n(Cc2ccccn2)nc(-c2ccnc(NC3CCOCC3)c2)n1-c1ccc2ccccc2c1", "Papp A→B at 2 h, 5 µM", 18.5],
  ["O=c1n(Cc2ccncc2)nc(-c2ccnc(NC3CCCCC3)c2)n1-c1ccc2ccccc2c1", "Papp A→B at 2 h, 5 µM", 8.1]
]}

[a] O=c1[nH]nc(-c2ccnc(NC3CCOCC3)c2)n1-c1ccc2ccccc2c1
[b] O=c1[nH]nc(-c2ccnc(NC3CCCCC3)c2)n1-c1ccc2ccccc2c1
Consider a and b . Which of these has its Papp A→B at 2 h, 5 µM at a higher number? Record your answer as the label of the chosen record.
a
(a: 15.7 ×10⁻⁶ cm/s, b: 0.9 ×10⁻⁶ cm/s)

---

target.system: Mitogen-activated protein kinase 1 (Homo sapiens, UniProt P28482)
Sequence (P28482 whole entry): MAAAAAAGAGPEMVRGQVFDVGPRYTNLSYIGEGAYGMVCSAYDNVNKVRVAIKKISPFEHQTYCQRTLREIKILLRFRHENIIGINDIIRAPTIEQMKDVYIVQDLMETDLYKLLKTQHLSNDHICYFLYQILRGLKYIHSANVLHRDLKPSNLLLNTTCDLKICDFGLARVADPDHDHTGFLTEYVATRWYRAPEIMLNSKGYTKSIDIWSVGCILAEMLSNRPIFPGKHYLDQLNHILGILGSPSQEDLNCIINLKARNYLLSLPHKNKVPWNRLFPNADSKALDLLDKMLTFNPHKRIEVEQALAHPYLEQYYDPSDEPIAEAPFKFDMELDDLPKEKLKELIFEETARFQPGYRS
protocol.text: Inhibition of recombinant ERK2 after 60 mins by TR-FRET assay
pIC50: −log10 of the molar value.
Listed compounds paired with reported pIC50

{"columns": ["compound", "target.system", "pIC50"],
 "data": [
  ["COC(=O)N1CCC(n2nc(-c3ccnc(NC4CCOCC4)c3)n(-c3ccc4ccccc4c3)c2=O)CC1", "Mitogen-activated protein kinase 1 (Homo sapiens, UniProt P28482)", "< 5.30"]
]}

Tell us which pIC50 value is on record for CC(=O)Nc1cc(-c2n[nH]c(=O)n2-c2ccc3ccccc3c2)ccn1
< 4.30

Tell us which pIC50 value is on record for O=c1n(-c2ccccn2)nc(-c2ccnc(NC3CCOCC3)c2)n1-c1ccc2ccccc2c1
< 4.30

Tell us which pIC50 value is on record for O=c1[nH]nc(-c2ccncc2)n1-c1ccc2ccccc2c1
< 4.30

Tell us which pIC50 value is on record for O=c1[nH]nc(-c2ccnc(NC3CCOCC3)c2)n1-c1ccc2cccc(F)c2c1
< 4.30

Tell us which pIC50 value is on record for Nc1ccc2cc(-n3c(-c4ccnc(NC5CCOCC5)c4)n[nH]c3=O)ccc2c1
< 4.30

Tell us which pIC50 value is on record for Nc1cccc2ccc(-n3c(-c4ccnc(NC5CCOCC5)c4)n[nH]c3=O)cc12
< 4.30

Tell us which pIC50 value is on record for O=c1n(Cc2ccccn2)nc(-c2ccnc(NC3CCOCC3)c2)n1-c1ccc2ccccc2c1
< 4.30

Tell us which pIC50 value is on record for O=c1n(C2CCOCC2)nc(-c2ccnc(NC3CCCCC3)c2)n1-c1ccc2ccccc2c1
< 4.30

Tell us which pIC50 value is on record for O=C(Nc1cc(-c2n[nH]c(=O)n2-c2ccc3ccccc3c2)ccn1)c1ccccc1
< 4.30

Tell us which pIC50 value is on record for O=c1[nH]nc(-c2ccnc(NC3CCCCC3)c2)n1-c1ccc2ccccc2c1
< 4.30

Tell us which pIC50 value is on record for O=c1[nH]nc(-c2ccnc(NC3CCOCC3)c2)n1-c1ccc2cc(F)ccc2c1
< 4.30

Tell us which pIC50 value is on record for O=c1[nH]nc(-c2ccnc(Nc3ccccn3)c2)n1-c1ccc2ccccc2c1
< 4.30

Tell us which pIC50 value is on record for O=c1[nH]nc(-c2ccnc(Nc3ccccc3)c2)n1-c1ccc2ccccc2c1
< 4.30

Tell us which pIC50 value is on record for O=c1n(Cc2ccncc2)nc(-c2ccnc(NC3CCCCC3)c2)n1-c1ccc2ccccc2c1
< 4.30

Tell us which pIC50 value is on record for O=c1[nH]nc(-c2ccnc(NC3CCCOC3)c2)n1-c1ccc2ccccc2c1 (stereo not drawn)
4.66

Tell us which pIC50 value is on record for C[C@H](Nc1cc(-c2n[nH]c(=O)n2-c2ccc3ccccc3c2)ccn1)c1ccccc1
< 5.30

All values here come from ChEMBL document CHEMBL1641539.
